Measured composite z-score values are reported for all entries that follow.
target: Dickkopf-related protein 1 (Homo sapiens); experiment: DKK1 binders on small-molecule microarrays, primary screen, biochemical, small-molecule microarray, 635 nm fluorescence scan (AID 1106); conditions: DKK1 binding, higher = more signal;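 also: score merges emission near 667 nm with signal to noise over three replicate slides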
readout.type: composite z-score

>>> test_result("[N-]=[N+]=Nc1ccccc1C[C@@]1(C(=O)NCc2ccccc2)N=C(c2ccc(OCCCO)cc2)O[C@@H]1c1ccccc1")
0.313
>>> test_result("[N-]=[N+]=NCc1ccccc1C[C@]1(C(=O)N2CCCCC2)COC(c2ccc(OCCCO)cc2)=N1")
0.221
>>> test_result("COC(=O)C1=CC(CCCO)=CC(c2ccc(CN3CCCC3)cc2)N(C)C=C1C(=O)OC (centres undefined)")
-0.36
>>> test_result("CC(C)C[C@H]1NC(=O)CNC(=O)[C@@]23C(=O)N[C@@H](Cc4ccccc4)C2[C@H](C)[C@@]2(C)O[C@H]2C3/C=C/C/C=C\\CNC1=O (some centres undefined)")
0.267

====

test system: Sonic hedgehog protein (Shh); assay: small-molecule binders of Shh protein, primary screen, biochemical, small-molecule microarray, 635/667 nm fluorescence (AID 1151); conditions: small-molecule microarray binding, 635 nm fluorescence; higher = more signal;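 also: Shh protein binding to compounds spotted on small-molecule microarray slides; score combines spot fluorescence intensity with signal-to-noise across triplicate slides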
A collection of molecules and their measured composite z-score
readout.type: composite z-score

>>> test_result("O=C1NC(=O)C2C1C=CC(C(O)C(c1ccccc1)c1ccccc1)N2Nc1ccccn1 (stereo not drawn)")
0.676
>>> test_result("C=CCC(OC(C)=O)[C@@H]1[C@@H](N(Cc2ccc(-c3ccccc3)cc2)C(=O)Cc2ccc(OC)cc2)c2cc(OCCCO)ccc2N1C(=O)c1ccc2ccccc2c1 (stereo partly drawn)")
0.234
>>> test_result("CCCCC(=C=CC[C@H](O)c1cccc(OCCO)c1)C[C@H](O)c1cc(Cl)cc(Cl)c1O")
1.84
>>> test_result("[N-]=[N+]=NCc1ccccc1C[C@@]1(C(=O)NCCN2CCOCC2)N=C(c2ccc(OCCCO)cc2)O[C@@H]1c1ccccc1")
0.34
>>> test_result("CN1C(=O)C2CC=C(C3=CCO[C@@H]3[C@H]3CCCN3S(=O)(=O)c3ccccc3[N+](=O)[O-])CC2C1=O (stereo partly drawn)")
-0.151
>>> test_result("C=CCN1C(=O)[C@@]2(O[C@@H](CCO)[C@H]([Si](C)(C)c3ccc(OC)cc3)[C@H]2C)c2cc(N3CCCCC3=O)ccc21")
1.6
>>> test_result("CCCCC=C[C@@H](NC(=O)C(C)(C)C)c1ccccc1")
-0.0371
>>> test_result("CCc1cccc(NC(=O)O[C@H]2[C@H](OC(=O)Nc3ccccc3-c3ccccc3)[C@H](OC(=O)Nc3ccccc3-c3ccccc3)[C@@H](OC)O[C@@H]2CO)c1")
2.18
>>> test_result("[N-]=[N+]=Nc1ccccc1C[C@]1(C(=O)N2CCCCC2)N=C(c2ccc(OCCCO)cc2)O[C@H]1c1ccccc1")
1.05
>>> test_result("COCCCNC(=O)[C@]1(Cc2ccccc2CN=[N+]=[N-])N=C(c2ccc(OCCCO)cc2)O[C@@H]1c1ccccc1N=[N+]=[N-]")
-0.448
>>> test_result("[N-]=[N+]=NCc1ccccc1C[C@]1(C(=O)N2CCCCC2)COC(c2ccc(OCCCO)cc2)=N1")
0.349
>>> test_result("[N-]=[N+]=Nc1ccccc1C[C@@]1(C(=O)NCC(O)CO)N=C(c2ccc(OCCCO)cc2)O[C@@H]1c1ccccc1N=[N+]=[N-] (stereo partly drawn)")
-0.59
>>> test_result("O=C1c2ccccc2[C@](Cc2ccccc2I)(C(=O)NCCN2CCOCC2)[C@H](c2ccc(CO)cc2)N1Cc1ccccc1C(F)(F)F")
0.468
>>> test_result("CC(CO)N1C(=O)[C@@H]2[C@H]3C(=O)OCC=C[C@H]3OC23C=CCN(c2ccc4ccccc4c2)C(=O)[C@@H]13 (stereo partly drawn)")
-1.19
>>> test_result("COC(=O)C(CC#Cc1ccc2c(c1)[C@]1(C(=O)N2)[C@H](c2ccccc2OCCO)N2[C@H](c3ccccc3)[C@H](c3ccccc3)OC(=O)[C@H]2[C@@H]1C(=O)N1CCN(c2ncccn2)CC1)C(=O)OC")
1.11
>>> test_result("Cc1ccc(S[C@]2(C(=O)NCc3ccccc3)CC(=O)N(Cc3ccccc3C(F)(F)F)[C@@H]2c2ccc(CO)cc2I)cc1")
-0.26
>>> test_result("COc1cccc(C)c1NC(=O)O[C@H]1[C@H](OC(=O)Nc2ccccc2)[C@@H](OC(=O)Nc2ccccc2)[C@@H](OC)O[C@@H]1CO")
0.958
>>> test_result("[N-]=[N+]=NCc1ccccc1[C@H]1OC(c2ccc(OCCCO)cc2)=N[C@@]1(Cc1ccccc1N=[N+]=[N-])C(N)=O")
0.183
>>> test_result("C=CCNC(=O)[C@H]1[C@@H]2C(=O)O[C@@H](c3ccccc3)[C@@H](c3ccccc3)N2[C@@H](c2ccc(O)cc2)[C@]12C(=O)Nc1ccc(C#CCC(C(=O)OC)C(=O)OC)cc12")
0.414
>>> test_result("CCCCCCCCCCC(O)C1C=CC2C(=O)N(C)C(=O)C2N1Nc1ccccc1 (stereo not drawn)")
-1.5
>>> test_result("O=C1C2C=CC(C(O)C(c3ccccc3)c3ccccc3)N(Nc3ccccc3F)C2C(=O)N1c1ccccc1 (stereo not drawn)")
0.868
>>> test_result("C=C(COC)C(=O)CC[C@H](OC(C)=O)c1ccccc1OCCO")
1.8
>>> test_result("COC(=O)C1=CC(CCCO)=CC(c2ccc(CN3CCCC3)cc2)N(C)C=C1C(=O)OC (stereo not drawn)")
-0.284
>>> test_result("COc1ccc(C(O)C2C=CC3C(=O)N(c4ccccc4)C(=O)C3N2Nc2ccccc2F)c2ccccc12 (stereo not drawn)")
0.824
>>> test_result("COC(=O)C(CC#Cc1ccc2c(c1)[C@]1(C(=O)N2)[C@H](C(=O)N2CCCCCCC2)[C@H]2C(=O)O[C@H](c3ccccc3)[C@H](c3ccccc3)N2[C@@H]1c1ccc(OCCO)cc1)C(=O)OC")
2.05
>>> test_result("COCCOC(=O)N1C(=O)[C@@]2(c3ccccc31)[C@H](C(=O)Nc1nc3ccccc3s1)[C@H]1C(=O)O[C@H](c3ccccc3)[C@H](c3ccccc3)N1[C@@H]2c1ccccc1OCCO")
0.733
>>> test_result("CCCC=C(CCC)[C@@H](NC(=O)c1ccc(C(=O)OC)cc1)c1ccc(C(=O)OC)cc1")
-1.35
>>> test_result("COc1ccc(C(=O)Nc2cccc(CN3C(=O)[C@]4(O[C@H](CC(=O)N(CCO)Cc5ccccc5)[C@@H]([Si](C)(C)c5ccc(OC)cc5)[C@@H]4C)c4ccccc43)c2)cc1")
1.48
